Cited source: paper PMC4774972

system: K. pneumoniae CI Koprana 100650661:1, PmxR; test: microbe, parasite or virus in culture; assay type: cell-based, Klebsiella pneumoniae; conditions: carbapenem & polymyxin resistant clinical isolate; MHB, 5 × 10^5 CFU/mL, 18 h at 37 °C
Bridge positions count the residues as written; N and C are the ends. Square brackets hold non-standard residues; d marks the D form. Peptide text beside a SMILES is read from it. * marks the point of attachment. Benzoyl(4-Ph) = O=C(c1ccc(-c2ccccc2)cc1)*; Phe(4-NH2) = Nc1ccc(C[C@H](N)C(=O)O)cc1; hSer = N[C@@H](CCO)C(=O)O; Octanoyl = CCCCCCCC(=O)*; Dab = NCC[C@H](N)C(=O)O
experimental readout: MIC K. pneumoniae CI Koprana 100650661:1, PmxR

Look over these answered cases.
compound | test target | result
CCCCCCCC(=O)N[C@@H](CCN)C(=O)N[C@H](C(=O)N[C@@H](CCN)C(=O)N[C@H]1CCNC(=O)[C@H]([C@@H](C)O)NC(=O)[C@H](CCNC(=O)[C@@H](N)CCC(=O)O)NC(=O)[C@H](CCN)NC(=O)[C@H](CC(C)C)NC(=O)[C@@H](Cc2ccccc2)NC(=O)[C@H](CCN)NC1=O)[C@@H](C)O [Compound 19] (Octanoyl-[Dab]T[Dab][Dab][Dab][dF]L[Dab][Dab](Glu)T; lactam 4-C) | K. pneumoniae CI Koprana 100650661:1, PmxR | >32 µg/mL
CCCCCCCC(=O)NCC(=O)N[C@@H](CCN)C(=O)N[C@H](C(=O)N[C@H]1CCNC(=O)[C@H]([C@@H](C)O)NC(=O)[C@H](CCN)NC(=O)[C@H](CCN)NC(=O)[C@H](CC(C)C)NC(=O)[C@@H](Cc2ccccc2)NC(=O)[C@H](CCN)NC1=O)[C@@H](C)O [Compound 41] (Octanoyl-G[Dab]T[Dab][Dab][dF]L[Dab][Dab]T; lactam 4-C) | K. pneumoniae CI Koprana 100650661:1, PmxR | >32 µg/mL
CCCCCCCC(=O)N[C@@H](CCN)C(=O)N[C@H](C(=O)N[C@@H](CCN)C(=O)N[C@H]1CCNC(=O)[C@H]([C@@H](C)O)NC(=O)[C@H](CCCNC(=N)N)NC(=O)[C@H](CCN)NC(=O)[C@H](CC(C)C)NC(=O)[C@@H](Cc2ccccc2)NC(=O)[C@H](CCN)NC1=O)[C@@H](C)O [Compound 21] (Octanoyl-[Dab]T[Dab][Dab][Dab][dF]L[Dab]RT; lactam 4-C) | K. pneumoniae CI Koprana 100650661:1, PmxR | >32 µg/mL

stdin: So what's the measured MIC K. pneumoniae CI Koprana 100650661:1, PmxR for this one? CC(C)C[C@@H]1NC(=O)[C@@H](Cc2ccccc2)NC(=O)[C@H](CCN)NC(=O)[C@@H](NC(=O)[C@H](CCN)NC(=O)[C@@H](NC(=O)[C@H](CCN)NC(=O)c2ccc(-c3ccccc3)cc2)[C@@H](C)O)CCNC(=O)[C@H]([C@@H](C)O)NC(=O)[C@H](CCN)NC(=O)[C@H](CCN)NC1=O [Compound 10] ({Benzoyl(4-Ph)}-[Dab]T[Dab][Dab][Dab][dF]L[Dab][Dab]T; lactam 4-C)
stdout: >32 µg/mL

stdin: Follow-up item: "CC[C@H](C)CCCCC(=O)N[C@@H](CCN)C(=O)N[C@H](C(=O)N[C@@H](CCN)C(=O)N[C@H]1CCNC(=O)[C@H]([C@@H](C)O)NC(=O)[C@H](CCN)NC(=O)[C@H](CCN)NC(=O)[C@H](CC(C)C)NC(=O)[C@@H](Cc2ccccc2)NC(=O)[C@H](CCN)NC1=O)[C@@H](C)O"
stdout: 64 µg/mL

stdin: Follow-up item: "CCCCCCCC(=O)N[C@@H](CCN)C(=O)N[C@H](C(=O)N[C@@H](CCN)C(=O)N[C@H]1CCNC(=O)[C@H]([C@@H](C)O)NC(=O)[C@H](CCN)NC(=O)[C@H](Cc2ccc(N)cc2)NC(=O)[C@H](CC(C)C)NC(=O)[C@@H](Cc2ccccc2)NC(=O)[C@H](CCN)NC1=O)[C@@H](C)O"
stdout: >32 µg/mL

stdin: Follow-up item: CCCCCCCC(=O)N[C@@H](CCN)C(=O)N[C@H](C(=O)N[C@@H](CCN)C(=O)N[C@H]1CCNC(=O)[C@H]([C@@H](C)O)NC(=O)[C@H](CCN)NC(=O)[C@H](CCN)NC(=O)[C@H](CC(C)C)NC(=O)[C@@H](Cc2ccccc2)NC(=O)[C@H](CCO)NC1=O)[C@@H](C)O [Compound 33] (Octanoyl-[Dab]T[Dab][Dab][hSer][dF]L[Dab][Dab]T; lactam 4-C)
stdout: >32 µg/mL

stdin: Follow-up item: CCCCCCCC(=O)N[C@@H](CCN)C(=O)N[C@H](C(=O)N[C@@H](CCN)C(=O)N[C@H]1CCNC(=O)[C@H]([C@@H](C)O)NC(=O)[C@H](Cc2ccc(N)cc2)NC(=O)[C@H](CCN)NC(=O)[C@H](CC(C)C)NC(=O)[C@@H](Cc2ccccc2)NC(=O)[C@H](CCN)NC1=O)[C@@H](C)O [Compound 20] (Octanoyl-[Dab]T[Dab][Dab][Dab][dF]L[Dab][Phe(4-NH2)]T; lactam 4-C)
stdout: >32 µg/mL
